Assay: gradient 5% acetonitrile 3 min, to 50% in 2 min, to 85% in 15 min, held 3 min, 100 µL/min
Conditions: column: Zorbax Extend-C18 2.1 x 50 mm; eluents: water / acetonitrile, 0.1% formic acid
Please provide measured RP-LC retention time for the entries that follow.
Dear colleague, please return just the value in s, with no unit written.

Prompt line: Find the recorded RP-LC retention time belonging to O=C(C1c2ccccc2CCN1C(=O)C1CC1)N1CCN(c2ccc(F)cc2)CC1 (configuration not stated) and report it.
Response line: 943

Prompt line: Find the recorded RP-LC retention time belonging to CCc1ccc(NC(=O)Cn2cnc3nc(N4CCCC(C(=O)NC)C4)sc3c2=O)cc1 (configuration not stated) and report it.
Response line: 694

Prompt line: Find the recorded RP-LC retention time belonging to CCC1CN2C=NC(N3CCN(C(=O)c4ccc(C)s4)CC3)=CC2=N1 (configuration not stated) and report it.
Response line: 632

Prompt line: Find the recorded RP-LC retention time belonging to `Cc1nn(-c2ccc(SCC(=O)NC(C)C)nn2)c(C)c1C` and report it.
Response line: 776

Prompt line: Find the recorded RP-LC retention time belonging to `c1ccc(CCc2nnc3sc(-c4ccc5ccccc5n4)nn23)cc1` and report it.
Response line: 1180

Prompt line: Find the recorded RP-LC retention time belonging to `CN1c2cc(Cl)ccc2C(=O)NC12CCN(C(=O)NCc1ccc(F)cc1)CC2` and report it.
Response line: 820

Prompt line: Find the recorded RP-LC retention time belonging to C=C1C(=O)C2=CC1CCC(=O)C1(C)CCC(OC(C)=O)C(C)(C)C1CC2O (configuration not stated) and report it.
Response line: 718

Prompt line: Find the recorded RP-LC retention time belonging to `Cc1ccc2c(c1)N(C(=O)Cn1nc3c4ccccc4ncn3c1=O)CCO2` and report it.
Response line: 730

Prompt line: Find the recorded RP-LC retention time belonging to `Cc1ccc(F)cc1NS(=O)(=O)c1cc(-c2[nH]ncc2C(=O)N2CCCC2)oc1C` and report it.
Response line: 739

Prompt line: Find the recorded RP-LC retention time belonging to Cc1ccc(NC(=O)N2CCCC(C)(C(=O)NCc3ccccc3)C2)c(Cl)c1 (configuration not stated) and report it.
Response line: 993

Prompt line: Find the recorded RP-LC retention time belonging to CC(=O)N1CCC2(CC1)CC(CC(=O)N(C)C)CCO2 (configuration not stated) and report it.
Response line: 587

Prompt line: Find the recorded RP-LC retention time belonging to `COc1ccc(OC)c(S(=O)(=O)N2CCCN(C)c3ccccc32)c1` and report it.
Response line: 860

Prompt line: Find the recorded RP-LC retention time belonging to CC1CCCCN1CCCNC(=O)CCC(=O)N1CCc2c(c(C(=O)N3CCCC3)nn2C)C1 (configuration not stated) and report it.
Response line: 586

Prompt line: Find the recorded RP-LC retention time belonging to CCC(C)NC(=O)CCc1cc2cc(OC)ccc2[nH]c1=O (configuration not stated) and report it.
Response line: 668

Prompt line: Find the recorded RP-LC retention time belonging to `O=C(Nc1ccc2nncn2c1)Nc1cc(F)ccc1F` and report it.
Response line: 726

Prompt line: Find the recorded RP-LC retention time belonging to `CC(C)NC(=O)c1ccc2c(c1)CCCN2C(=O)c1ccc(F)cc1` and report it.
Response line: 784

Prompt line: Find the recorded RP-LC retention time belonging to `COc1ccccc1-c1nc(Cc2noc(-c3ccccc3F)n2)c(C)o1` and report it.
Response line: 1020

Prompt line: Find the recorded RP-LC retention time belonging to `CS(=O)(=O)N1CCCN(C(=O)C2(c3ccccc3)CC2)c2ccccc21` and report it.
Response line: 761

Prompt line: Find the recorded RP-LC retention time belonging to COC(=O)C1=C(C)NC(=O)NC1c1cn(-c2ccccc2)nc1-c1ccc(Cl)cc1 (configuration not stated) and report it.
Response line: 784

Prompt line: Find the recorded RP-LC retention time belonging to `Cc1cnc(Nc2ccc(N3CCN(C)CC3)cc2)nc1Nc1cccc(S(=O)(=O)NC(C)(C)C)c1` and report it.
Response line: 608

Prompt line: Find the recorded RP-LC retention time belonging to `COC(=O)c1ccc2c(=O)n(-c3cc(C)cc(C)c3)c(N3CCOCC3)nc2c1` and report it.
Response line: 1040

Prompt line: Find the recorded RP-LC retention time belonging to Cc1cc(C)cc(N2CCC(NC(=O)c3ccsc3)C2=O)c1 (configuration not stated) and report it.
Response line: 815
